# System: NCI-H358 cells
# TEST_DESCRIPTION: 3D cell proliferation inhibition assay (CellTiter-Glo 3D)
# Format: cell-based
# EXPERIMENTAL_CONTEXT: Homo sapiens, 192 h; NCI-H358 (KRAS G12C-mutated NSCLC), 3D culture, CTG 3D read on Day 8; read-out: Activity by IC50 (nM), inhibitory activity against NCI-H358 cell proliferation
# Description: The cell proliferation inhibition assay was used to determine the abilities of compounds to inhibit the proliferation and growth of SOS1-mediated tumor cells at the in vitro 3D cellular level. The CellTiter-Glo® 3D Cell Viability Assay was employed. • NCI-H358: KRAS G12C-mutated non-small cell lung cancer (NSCLC); • CellTiter-Glo® 3D Cell Viability Assay, Promega, G9683; • RPMI 1640 medium, Gibco, A10491-01; • FBS, Gibco, 10099141C. […]
OUTCOME_MEASURE: IC50

> print(dat)
                               input.smiles  outcome.measure  value.reported
1  Cc1nc(N[C@H](C)c2cccc(C(F)(F)F)c2)c2c(n1)N1CCN=C1C(c1cn(C)c(=O)n(C)c1=O)=C2             IC50   100 to 500 nM
2  Cc1nc(N[C@H](C)c2cccc(C(F)(F)F)c2)c2c(n1)N1CCN=C1C(c1cccc(=O)n1C)=C2             IC50   100 to 500 nM
3  CCn1cc(C2=Cc3c(N[C@H](C)c4cccc(C(F)(F)F)c4)nc(C)nc3N3CCN=C23)ccc1=O             IC50   100 to 500 nM
4  Cc1nc(N[C@H](C)c2cccc(C(F)(F)F)c2)c2cc(N3CCOCC3)c3nncn3c2n1             IC50   100 to 500 nM
5  Cc1nc(N[C@H](C)c2cccc(C(F)(F)F)c2)c2c(n1)N1CCN=C1C(c1cccnc1)=C2             IC50   100 to 500 nM
6  Cc1nc(N[C@H](C)c2cccc(C(F)(F)F)c2)c2c(n1)N1CCN=C1C(c1ccc(=O)n(C)c1)=C2             IC50   100 to 500 nM
7  Cc1nc(N[C@H](C)c2cccc(C(F)(F)CO)c2)c2c(n1)N1CCN=C1C(c1ccn(C)c(=O)c1)=C2             IC50   100 to 500 nM
